- assay-method-text: in vitro
- Assay type: cell-based
- assay-context: human
- Description: At assay termination the assay plates were stained with the soluble tetrazolium-based dye MTS (CellTiter Reagent, Promega) to determine cell viability and quantify compound toxicity. MTS is metabolized by the mitochondria enzymes of metabolically active cells to yield a soluble formazan product, allowing the rapid quantitative analysis cell viability and compound cytotoxicity. […] The incubation intervals were chosen based on empirically determined times for optimal dye reduction in each cell type. […]
metric: CC50 at 7 days

• Cc1cn([C@H]2C[C@H](N=[N+]=[N-])[C@@H](CO)O2)c(=O)[nH]c1=O = > 4 µM
• CC(C(=O)O)c1ccc(-c2ccccc2)c(F)c1 (centres unmarked) [R-flurbiprofen, 3-fluoro-4-phenylhydratropic acid] = 731 µM

###

compounds and their reported IC50
- System: HIV-1
- assay-method-text: microbe, parasite or virus in culture
- assay-context: Human immunodeficiency virus 1, PBMC, 168 h
metric: IC50 (µM)

* CC(C(=O)O)c1ccc(-c2ccccc2)c(F)c1 (centres unmarked) [R-flurbiprofen, 3-fluoro-4-phenylhydratropic acid] | 238
* Cc1cn([C@H]2C[C@H](N=[N+]=[N-])[C@@H](CO)O2)c(=O)[nH]c1=O | 0.01
